pKi: −log10 of the molar value.
Test system UniProt:P22607, pKi listed for each of the compounds.
Sequence (P22607 23-806): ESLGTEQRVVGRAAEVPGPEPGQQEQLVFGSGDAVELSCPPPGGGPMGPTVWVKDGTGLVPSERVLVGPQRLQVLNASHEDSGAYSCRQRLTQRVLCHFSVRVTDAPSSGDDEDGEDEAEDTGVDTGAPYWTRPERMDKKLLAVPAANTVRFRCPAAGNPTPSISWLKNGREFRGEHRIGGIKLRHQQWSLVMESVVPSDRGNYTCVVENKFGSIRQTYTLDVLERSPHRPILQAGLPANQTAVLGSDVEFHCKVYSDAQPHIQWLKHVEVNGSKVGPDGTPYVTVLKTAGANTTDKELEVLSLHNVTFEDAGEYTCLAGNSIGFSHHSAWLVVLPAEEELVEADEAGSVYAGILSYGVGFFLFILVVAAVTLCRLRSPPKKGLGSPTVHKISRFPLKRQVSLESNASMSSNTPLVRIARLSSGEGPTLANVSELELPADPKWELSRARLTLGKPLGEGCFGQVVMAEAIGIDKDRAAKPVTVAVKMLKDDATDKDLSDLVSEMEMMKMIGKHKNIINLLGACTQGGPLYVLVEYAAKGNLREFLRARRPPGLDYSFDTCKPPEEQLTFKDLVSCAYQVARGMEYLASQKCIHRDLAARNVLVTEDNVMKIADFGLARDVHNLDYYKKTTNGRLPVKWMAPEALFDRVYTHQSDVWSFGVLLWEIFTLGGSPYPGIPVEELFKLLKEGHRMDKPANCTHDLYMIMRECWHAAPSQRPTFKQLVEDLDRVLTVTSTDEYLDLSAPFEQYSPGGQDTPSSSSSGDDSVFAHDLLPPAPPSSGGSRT

{"compound": "CN1CCC(c2nc3c4nc(-c5cnn(C)c5)cnc4ccc3n2C)CC1", "metric name": "pKi", "endpoint result": "≤ 6.40"}
{"compound": "CCc1c(-c2ccccc2Cl)nc2c3cc(-c4cnn(C)c4)cnc3ccn12", "metric name": "pKi", "endpoint result": "7.00 to 8.00"}
{"compound": "CC(C)(CO)n1cc(-c2cnc3ccn4c(CO)c(-c5c(Cl)cccc5Cl)nc4c3c2)cn1", "metric name": "pKi", "endpoint result": "> 8.00"}

// lookup pKi | system=UniProt:P22607 | key= `Cc1c(-c2c(Cl)cccc2Cl)nc2c3cc(-c4cnn(C5CN(C(=O)c6cocn6)C5)c4)cnc3ccn12`
> 8.00

// lookup pKi | system=UniProt:P22607 | key= CC(O)c1c(-c2c(Cl)cccc2Cl)nc2c3cc(-c4cnn([C@H]5CCN(C(=O)CO)C5)c4)cnc3ccn12 (stereo partly shown)
> 8.00

// lookup pKi | system=UniProt:P22607 | key= `Cc1c(-c2c(Cl)cccc2Cl)nc2c3cc(-c4cnn(C5CN(C(=O)C6(N)CC6)C5)c4)cnc3ccn12`
> 8.00

// lookup pKi | system=UniProt:P22607 | key= `CN(C)C(=O)c1ccc(-n2cc(-c3cnc4ccn5cc(-c6c(Cl)cccc6Cl)nc5c4c3)cn2)cc1`
7.00 to 8.00

====

- tgt: UniProt:P22607
- protocol summary: FGFR Enzymatic Assay (FRET detection of peptide phosphorylation)
- Type: biochemical
- condition summary: pre-incubated for 4 hours, read-out: FGFR3_Ki
pKi: −log10 of the molar value.
metric name: pKi

Name the recorded pKi for OCc1c(-c2c(Cl)cccc2Cl)nc2c3cc(-c4cnn(C5CCOC5)c4)cnc3ccn12 (stereo not shown) [Example 70] .
> 8.00

Name the recorded pKi for CC(=O)N1CCN(c2ccc(-c3cnc4ccc5c(nc(-c6c(F)cccc6Cl)n5C)c4n3)cn2)CC1 [Example 22] .
> 8.00

Name the recorded pKi for O=C(N1CCOCC1)N1CC[C@H](n2cc(-c3cnc4ccn5c(CO)c(-c6c(Cl)cccc6Cl)nc5c4c3)cn2)C1 [Example 57] .
> 8.00

Name the recorded pKi for Cn1cc(-c2cnc3ccn4cc(-c5c(F)cccc5Cl)nc4c3n2)cn1 [Example 14] .
7.00 to 8.00

Name the recorded pKi for Cc1c(-c2c(Cl)cccc2Cl)nc2c3cc(-c4cnn(C5CN(C(=O)Cn6ccnc6)C5)c4)cnc3ccn12 [Example 38] .
> 8.00

Name the recorded pKi for Cc1cccc(-c2nc3c4cc(-c5cnn(C)c5)cnc4ccn3c2C)c1C [Example 29] .
7.00 to 8.00

Name the recorded pKi for OCc1c(-c2c(Cl)cccc2Cl)nc2c3cc(-c4cnn(C(F)F)c4)cnc3ccn12 [Example 74] .
> 8.00

Name the recorded pKi for O=C(CO)N1CC[C@H](n2cc(-c3cnc4ccn5c(CO)c(-c6c(Cl)cccc6Cl)nc5c4c3)cn2)C1 [Example 55] .
> 8.00

Name the recorded pKi for CN(C)S(=O)(=O)N1CCC(n2cc(-c3cnc4ccn5cc(-c6c(Cl)cccc6Cl)nc5c4c3)cn2)C1 (stereo not shown) [Example 51] .
> 8.00

Name the recorded pKi for Cn1cc(-c2cnc3ccn4c(-c5ccco5)c(-c5ccccc5Cl)nc4c3c2)cn1 [Example 6] .
7.00 to 8.00
